# Tested on: LOX IMVI
# Assay method text: NCI tumour cell line growth inhibition, 48 h
Calls of active or inactive are those of the source. Rule as the data show it: active = GI50 up to about 1.1 µM and inactive = higher.
Labels: active, inactive

{"Compound": "CCOC(=O)C1OC(C2(C)OC3(OC4(C=CC3O)OC(C(C)C(=O)C(C)C(O)C(C)CC(C)c3c(Cl)cc(C)c(O)c3C(=O)O)C(C)CC4C)C(C)C2OC)CC1O (stereo not given)", "Label value": "active"}
{"Compound": "Cc1ccc2c(=O)c3ccccc3sc2c1", "Label value": "inactive"}
{"Compound": "COc1cc(C)c(/C=C/C(=O)N2C(=O)OC[C@@H]2c2ccccc2)c(C)c1", "Label value": "inactive"}
{"Compound": "Cc1ccc(S(=O)(=O)NNC(C[N+](=O)[O-])c2ccccc2)cc1 (stereo not given)", "Label value": "inactive"}
{"Compound": "COC(=O)C(=C\\Sc1ccccc1)/C=C/C(=O)OC(C)(C)C", "Label value": "inactive"}
